Biological target: T1, recombinant human vascular endothelial growth factor (hVEGF) 121 (human, UniProt P15692 27-147)
T1 construct: mature; also called human VEGF-A121; hVEGF 121 isoform
T1 sequence (looked up): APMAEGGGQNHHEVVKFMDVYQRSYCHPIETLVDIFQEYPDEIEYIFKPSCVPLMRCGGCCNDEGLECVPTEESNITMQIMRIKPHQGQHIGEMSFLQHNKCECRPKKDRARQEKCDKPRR
Assay: Fab-ELISA: Fab titrated on wells coated with 2 ug/mL hVEGF-121, detected with anti-kappa-light-chain-HRP
endpoint.label: EC50 (read off the curve)

Examples with answers:
# binder, EC50 (read off the curve)
rows = [
    ("FF0124-4 (Fab, V domains shown, also called FF0124-4 F2088) VH: EVQLVESGGGLVQPGGSLRLSCAASGFDLYSYSIHWVRQAPGKGLEWVASIYSYSGYTYYADSVKGRFTISADTSKNTAYLQMNSLRAEDTAVYYCARGGWYALDYWGQGTLVTVSS VL: DIQMTQSPSSLSASVGDRVTITCRASQSVSSAVAWYQQKPGKAPKLLIYSASSLYSGVPSRFSGSRSGTDFTLTISSLQPEDFATYYCQQGYGPFYSLITFGQGTKVEIK", "~10 nM"),
    ("FF0124-7 (Fab, V domains shown, also called FF0124-7 F2116) VH: EVQLVESGGGLVQPGGSLRLSCAASGFDLYYSYMHWVRQAPGKGLEWVASISSYSGYTSYADSVKGRFTISADTSKNTAYLQMNSLRAEDTAVYYCARGFYYGGWYGIDYWGQGTLVTVSS VL: DIQMTQSPSSLSASVGDRVTITCRASQSVSSAVAWYQQKPGKAPKLLIYSASSLYSGVPSRFSGSRSGTDFTLTISSLQPEDFATYYCQQHYGPITFGQGTKVEIK", "~30 nM"),
    ("FF0124-6 (Fab, V domains shown, also called FF0124-6 F2094) VH: EVQLVESGGGLVQPGGSLRLSCAASGFDIYYYSMHWVRQAPGKGLEWVASISSYSGYTSYADSVKGRFTISADTSKNTAYLQMNSLRAEDTAVYYCARYPYYYWAFDYWGQGTLVTVSS VL: DIQMTQSPSSLSASVGDRVTITCRASQSVSSAVAWYQQKPGKAPKLLIYSASSLYSGVPSRFSGSRSGTDFTLTISSLQPEDFATYYCQQSGHYHYPFTFGQGTKVEIK", "~20 nM"),
]

## Input Consider the binder shown here: FF0124-2 (Fab, V domains shown, seventh Fab of the naive library selection; also called FF0124-2 F2083; FF0124 Fab # 2) VH: EVQLVESGGGLVQPGGSLRLSCAASGFDLYYSSMHWVRQAPGKGLEWVASISPSSSYTYYADSVKGRFTISADTSKNTAYLQMNSLRAEDTAVYYCARYYWWHSPFWAYSGLDYWGQGTLVTVSS VL: DIQMTQSPSSLSASVGDRVTITCRASQSVSSAVAWYQQKPGKAPKLLIYSASSLYSGVPSRFSGSRSGTDFTLTISSLQPEDFATYYCQQSGPLFTFGQGTKVEIK What is its recorded EC50 (read off the curve)?
## Output ~50 nM

## Input Consider the binder shown here: FF0124-5 (Fab, V domains shown, also called FF0124-5 F2091) VH: EVQLVESGGGLVQPGGSLRLSCAASGFDISSYYMHWVRQAPGKGLEWVASIYSYSGYTYYADSVKGRFTISADTSKNTAYLQMNSLRAEDTAVYYCARHSVYYWYGSYWYYPSSAMDYWGQGTLVTVSS VL: DIQMTQSPSSLSASVGDRVTITCRASQSVSSAVAWYQQKPGKAPKLLIYSASSLYSGVPSRFSGSRSGTDFTLTISSLQPEDFATYYCQQFWAGYGLITFGQGTKVEIK What is its recorded EC50 (read off the curve)?
## Output ~20 nM

Value source: patent US20220235123A1
